TEST_SYSTEM: T1, NativeRPtag(large)_with_Tags_and_Cys (Thermoanaerobacter tengcongensis)
T1 chain: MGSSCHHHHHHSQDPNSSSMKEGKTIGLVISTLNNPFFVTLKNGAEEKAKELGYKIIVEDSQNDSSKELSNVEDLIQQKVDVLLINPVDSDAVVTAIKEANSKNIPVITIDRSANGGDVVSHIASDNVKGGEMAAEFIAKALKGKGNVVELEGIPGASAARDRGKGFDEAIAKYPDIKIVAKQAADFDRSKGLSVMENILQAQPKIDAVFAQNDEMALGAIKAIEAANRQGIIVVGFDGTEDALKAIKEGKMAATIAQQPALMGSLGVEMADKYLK
ASSAY_PROCEDURE: fluorescence anisotropy; PG (50%)
pKd: −log10 of the molar value.
RECORDED_METRIC: pKd

PAELKLITK (modifications not checked) [RPtag(small) Nd8, Cd4]; 5.34

These data points were gathered from patent US20200102347A1.
